tested on: Jurkat; test: Cell proliferation modulatory activity, Jurkat; format: cell-based; details: Homo sapiens
Label Y when IC50 is strictly below 9 µM; otherwise label N.

Before answering, review these 5 worked examples.
O=C(O)c1ccc2c(c1)nc(NC1CC1)c1nc(NCc3ccccn3)ncc12 = N
O=C(O)c1ccc2c(c1)nc(Nc1ccc(OC(F)(F)F)cc1)c1ccncc12 = Y
NC(=O)CCNc1ncc2c(n1)c(Nc1cccc(Cl)c1)nc1cc(C(=O)O)ccc12 = N
COc1cc(Nc2nc3cc(C(=O)O)ccc3c3cnccc23)ccc1C = N
O=C(O)c1ccc2c(c1)nc(Nc1cccc(C(F)(F)F)c1)c1ccncc12 = Y

From here, focus on the item given below.
Task item: Report whether reported IC50 is lower than 9 µM (strictly) for C#Cc1cccc(Nc2nc3cc(C(=O)N(C)c4ccccc4)ccc3c3cncnc23)c1
Reply: N

----------
target: recombinant human PIM1 (Homo sapiens (Human)); assay: PIM-1 kinase activity in cell-free in vitro assay; format: biochemical; conditions: 500 nM compound, cell-free; read-out: PIM-1: % inh 500 nM
Note to self: class = bucket of inhibition at 0.5 µM, per low class: < 30%; middle class: ≥ 30% and < 50%; high class: ≥ 50%

CC(=O)N1CCN(C(=O)c2cccc(Nc3nc4cc(-c5nnn[nH]5)ccc4c4sccc34)c2)CC1 = middle class

Task item: For c1ccc(Nc2nc3cc(-c4nnn[nH]4)ccc3c3ccccc23)cc1 , which inhibition at 0.5 µM bin applies?
Reply: low class

Task item: # bin lookup: classify CN(C)CCNc1nc2cc(C(=O)O)ccc2c2cnccc12 by its inhibition at 0.5 µM
Reply: high class

Task item: Please indicate the class for Cc1noc(-c2ccc3c(c2)nc(Nc2ccccc2)c2ccncc23)n1 based on its inhibition at 0.5 µM.
Reply: middle class

Task item: Pick a category. Item: CCCNC(=O)c1cccc(Nc2nc3cc(-c4nnn[nH]4)ccc3c3sccc23)c1
Reply: middle class

----------
biological target: recombinant human PIM1 (Homo sapiens (Human), UniProt P11309); experiment: PIM-1 kinase activity in cell-free in vitro assay; type: biochemical; conditions: 500 nM compound, cell-free assay; read-out: PIM-1: % inh 500 nM
Sequence (P11309 whole entry): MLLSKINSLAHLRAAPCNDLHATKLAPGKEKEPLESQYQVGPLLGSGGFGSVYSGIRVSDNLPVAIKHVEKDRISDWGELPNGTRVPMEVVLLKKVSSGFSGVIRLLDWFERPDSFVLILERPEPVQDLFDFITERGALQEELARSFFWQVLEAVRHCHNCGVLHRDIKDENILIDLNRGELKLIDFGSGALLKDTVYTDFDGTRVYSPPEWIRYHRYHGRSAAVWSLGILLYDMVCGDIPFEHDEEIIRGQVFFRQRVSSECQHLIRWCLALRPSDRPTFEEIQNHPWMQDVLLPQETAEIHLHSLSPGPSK
For each entry below, report its inhibition at 0.5 µM value.
Give bare numbers, in %.

N#Cc1ccc2c(c1)nc(Cl)c1sccc12 = -23.9
CCOC(=O)CCNC(=O)c1ccc2c(c1)nc(Nc1cccc(C(F)(F)F)c1)c1nc(NC3CC3)ncc12 = 10.5
O=C(NCc1ccccc1)c1ccc2c(c1)nc(Nc1cccc(Cl)c1)c1ccncc12 = -29.4
C#Cc1cccc(Nc2nc3cc(C(=O)O)ccc3c3cnc(NCC4CCCO4)nc23)c1 (stereo not shown) [drawing 1605] = 1.48
CNC(=O)c1ccc2c(c1)nc(Nc1ccccc1C)c1nc(NC3CC3)ncc12 = 4.21
CN(C)CCNc1nc2cc(C#N)ccc2c2cscc12 = 20
N#Cc1ccc2c(c1)nc(Nc1ccc(F)c(Cl)c1)c1cscc12 = -26.3
c1ccc(Nc2nc3ccccc3c3cnccc23)cc1 = 7
CN(C)C(=O)c1ccc2c(c1)nc(Nc1cccc(Cl)c1)c1ccncc12 = 4.85

Kindly consider the entry below.
Task item: Look up inhibition at 0.5 µM for this compound: O=C(O)c1ccc2c(c1)nc(Nc1ccccc1)c1nc(NCCN3CCOCC3)ncc12
Reply: 30.6

----------
Exercise: state measured inhibition at 0.5 µM for each of the molecules provided.
biological target: recombinant human PIM1 (Homo sapiens (Human), UniProt P11309); assay: PIM-1 kinase activity in cell-free in vitro assay; type: biochemical; conditions: 500 nM compound, cell-free assay; read-out: PIM-1: % inh 500 nM
Answers are plain numbers, in %.

# example entries with known answers
Fc1ccc(Nc2nc3cc(-c4nnn[nH]4)ccc3c3cscc23)cc1Cl = 14.2
N#Cc1ccc2c(c1)nc(NCCC1CCCN1)c1ccsc12 (centres unmarked) = 36.2
CN1CCCCC1CNc1nc2cc(-c3nnn[nH]3)ccc2c2cscc12 (centres unmarked) = 93.9
N#Cc1ccc2c(c1)nc(NCCc1ccccn1)c1ccsc12 = 10.6
COC(=O)c1cccc2c1[nH]c(=O)c1ccncc12 = -70.5
COc1ccccc1Nc1nc2cc(C(=O)O)ccc2c2cnccc12 = 75.8
N#Cc1ccc2c(c1)nc(NCc1ccccn1)c1ccsc12 = 2.17
COCCNc1ncc2c(n1)c(Nc1ccccc1)nc1cc(C(=O)O)ccc12 = 19.8

For each listed entry, give its inhibition at 0.5 µM.
1. CNC(=O)c1ccc2c(c1)nc(NCCN(C)C)c1ccsc12
2. N#Cc1ccc2c(c1)nc(N1CCNC(=O)C1)c1ccsc12
3. COc1cc(Nc2nc3cc(C(=O)O)ccc3c3cnccc23)cc(OC)c1

Reply:
5.73
8.04
72

Values from patent US8168651B2
